- Tested on: Phytophthora capsici (Pc)
- assayComment: In vitro pathogen growth inhibition assay, Pc
- Format: cell-based
- conditionParameters: 48 h, ≥90% inhibition, 48 hours vs 2% DMSO control, read-out: Compound Concentration (ppm) sufficient for ≥90% inhibition of growth, Pc
Could you please report measured IC90 for the items listed next?

State its IC90: COc1ccc(F)cc1[C@H](Cn1c(=O)n(C(C)(C)C(=O)N2CCCC2)c(=O)c2c(C)c(-n3cccn3)sc21)OC1CCC(=O)CC1 > 50 µg/mL

Answer with the recorded IC90 for the molecule listed here: CCO[C@@H](Cn1c(=O)n(C(C)(C)C(=O)N2CCCC2)c(=O)c2c(C)c(-n3cccn3)sc21)c1cc(F)ccc1OC > 50 µg/mL

Tell me its IC90 given COc1ccc(F)cc1[C@H](Cn1c(=O)n([C@H](C)C(=O)NC(C)C)c(=O)c2c(C)c(-n3nccn3)sc21)OC(C)C as the entry. > 50 µg/mL

---

So I've got a bunch of compounds here, and I need their IC90 values.
- Tested on: Botrtyis cinerea (Bc)
- assayComment: In vitro pathogen growth inhibition assay, Bc
- Type: cell-based
- conditionParameters: 48 h, ≥90% growth inhibition; 48 hours; vs 2% DMSO control; read-out: Compound Concentration (ppm) sufficient for ≥90% inhibition of Bc
Lab book: enter the figure in µg/mL, no units written.

Give reported IC90 value for COc1ccc(F)cc1[C@H](Cn1c(=O)n(C(C)(C)C(=O)N2CCCC2)c(=O)c2c(C)c(-n3nccn3)sc21)OCCC#N [Compound I-195] 2

Look up and state reported IC90 for COc1ccc(F)cc1[C@@](O)(CCO)Cn1c(=O)n(C(C)(C)C(=O)NC(C)C)c(=O)c2c(C)c(-n3nccn3)sc21 [Compound I-276] 2

// fetch IC90 given entry COc1ccc(F)cc1[C@@](C)(Cn1c(=O)n(C(C)(C)C(=O)NC(C)C)c(=O)c2c(C)c(-n3nccn3)sc21)OCCC#N [Compound I-274] 0.4

---

- Tested on: Rhizoctonia solani (Rs)
- assayComment: In vitro pathogen growth inhibition assay, Rs (mycelial plugs)
- Assay type: cell-based
- conditionParameters: Rhizoctonia solani, 48 h, ≥90% growth inhibition; mycelial plugs; 48 hours; vs 2% DMSO control; read-out: Compound Concentration (ppm) sufficient for ≥90% inhibition of Rs
readoutLabel: IC90 (µg/mL)
The reply should be a number in µg/mL, with the unit left off.

Give the value of IC90 reported for the following: Cc1c(-n2nccn2)sc2c1c(=O)n(C(C)(C)C(=O)NC(C)C)c(=O)n2CCc1cc(F)ccc1OC1CCOCC1 10

Please report IC90 for the following compound: COc1ccc(F)cc1[C@H](Cn1c(=O)n(C(C)(C)C(=O)N2CCCC2)c(=O)c2c(C)c(-n3cccn3)sc21)OCCC#N 10

Give the reported value of IC90 for this record: CCOC(=O)c1sc2c(c1C)c(=O)n(C(C)(C)C(=O)NC(C)C)c(=O)n2C[C@H](OCC(C)(C)C#N)c1cc(F)ccc1OC 2

---

- Test system: Phytophthora capsici (Pc)
- assayComment: In vitro pathogen growth inhibition assay, Pc
- Format: cell-based
- conditionParameters: 48 h, ≥90% inhibition, 48 hours vs 2% DMSO control, read-out: Compound Concentration (ppm) sufficient for ≥90% inhibition of growth, Pc
- Experimental: A growth inhibition assay was conducted to determine the ability of compounds to control the growth of fungal pathogens, such as Botrtyis cinerea (Bc), Collectotrichum graminicola (Cg), Diplodia maydis (Dm), Fusarium moniliforme (Fm), Fusarium virguliforme (Fv), Phytophthora capsici (Pc), Rhizoctonia solani (Rs), and Septoria tritici (St). […] Plate readings were repeated at both 24 and 48 hours. […]
readoutLabel: IC90

Consider the molecule COc1ccccc1[C@H](Cn1c(=O)n(C(C)(C)C(=O)N2CCCCC2)c(=O)c2c(C)c(-c3ncco3)sc21)OC1CCOCC1 . State its measured IC90. > 50 µg/mL

Write down IC90 measured for item CCO[C@@H](Cn1c(=O)n(C(C)(C)C(=O)NC(C)C)c(=O)c2c(C)c(-n3nccn3)sc21)c1cc(F)ccc1OC > 50 µg/mL

Look up and state reported IC90 for COc1ccc(F)cc1[C@H](Cn1c(=O)n(C(C)(C)C(=O)NC(C)C)c(=O)c2c(C)c(-n3cccn3)sc21)OC[C@H](C)O > 50 µg/mL

Tell me measured IC90 for COc1ccc(F)cc1[C@H](Cn1c(=O)n(C(C)(C)C(=O)NC(C)C)c(=O)c2c(C)c(-n3nccn3)sc21)OC(C)C please. > 50 µg/mL

For COc1ccc(F)cc1[C@H](Cn1c(=O)n(C(C)(C)C(N)=O)c(=O)c2c(C)c(C3CCC3)sc21)OC1CCOCC1 , write its IC90. > 50 µg/mL

For the molecule COc1ccc(F)cc1[C@H](Cn1c(=O)n(CC(=O)N2CCCC2)c(=O)c2c(C)c(-n3nccn3)sc21)OC(C)C , give its measured IC90 value. > 50 µg/mL
